Hello, the source for this data is patent EP1042468B1, in case you need it.

Target: human α1H channels expressed in Xenopus oöcytes (Homo sapiens)
Construct: Construction of a full-length α1H-1-encoding DNA clone
Sequence (O95180 whole entry): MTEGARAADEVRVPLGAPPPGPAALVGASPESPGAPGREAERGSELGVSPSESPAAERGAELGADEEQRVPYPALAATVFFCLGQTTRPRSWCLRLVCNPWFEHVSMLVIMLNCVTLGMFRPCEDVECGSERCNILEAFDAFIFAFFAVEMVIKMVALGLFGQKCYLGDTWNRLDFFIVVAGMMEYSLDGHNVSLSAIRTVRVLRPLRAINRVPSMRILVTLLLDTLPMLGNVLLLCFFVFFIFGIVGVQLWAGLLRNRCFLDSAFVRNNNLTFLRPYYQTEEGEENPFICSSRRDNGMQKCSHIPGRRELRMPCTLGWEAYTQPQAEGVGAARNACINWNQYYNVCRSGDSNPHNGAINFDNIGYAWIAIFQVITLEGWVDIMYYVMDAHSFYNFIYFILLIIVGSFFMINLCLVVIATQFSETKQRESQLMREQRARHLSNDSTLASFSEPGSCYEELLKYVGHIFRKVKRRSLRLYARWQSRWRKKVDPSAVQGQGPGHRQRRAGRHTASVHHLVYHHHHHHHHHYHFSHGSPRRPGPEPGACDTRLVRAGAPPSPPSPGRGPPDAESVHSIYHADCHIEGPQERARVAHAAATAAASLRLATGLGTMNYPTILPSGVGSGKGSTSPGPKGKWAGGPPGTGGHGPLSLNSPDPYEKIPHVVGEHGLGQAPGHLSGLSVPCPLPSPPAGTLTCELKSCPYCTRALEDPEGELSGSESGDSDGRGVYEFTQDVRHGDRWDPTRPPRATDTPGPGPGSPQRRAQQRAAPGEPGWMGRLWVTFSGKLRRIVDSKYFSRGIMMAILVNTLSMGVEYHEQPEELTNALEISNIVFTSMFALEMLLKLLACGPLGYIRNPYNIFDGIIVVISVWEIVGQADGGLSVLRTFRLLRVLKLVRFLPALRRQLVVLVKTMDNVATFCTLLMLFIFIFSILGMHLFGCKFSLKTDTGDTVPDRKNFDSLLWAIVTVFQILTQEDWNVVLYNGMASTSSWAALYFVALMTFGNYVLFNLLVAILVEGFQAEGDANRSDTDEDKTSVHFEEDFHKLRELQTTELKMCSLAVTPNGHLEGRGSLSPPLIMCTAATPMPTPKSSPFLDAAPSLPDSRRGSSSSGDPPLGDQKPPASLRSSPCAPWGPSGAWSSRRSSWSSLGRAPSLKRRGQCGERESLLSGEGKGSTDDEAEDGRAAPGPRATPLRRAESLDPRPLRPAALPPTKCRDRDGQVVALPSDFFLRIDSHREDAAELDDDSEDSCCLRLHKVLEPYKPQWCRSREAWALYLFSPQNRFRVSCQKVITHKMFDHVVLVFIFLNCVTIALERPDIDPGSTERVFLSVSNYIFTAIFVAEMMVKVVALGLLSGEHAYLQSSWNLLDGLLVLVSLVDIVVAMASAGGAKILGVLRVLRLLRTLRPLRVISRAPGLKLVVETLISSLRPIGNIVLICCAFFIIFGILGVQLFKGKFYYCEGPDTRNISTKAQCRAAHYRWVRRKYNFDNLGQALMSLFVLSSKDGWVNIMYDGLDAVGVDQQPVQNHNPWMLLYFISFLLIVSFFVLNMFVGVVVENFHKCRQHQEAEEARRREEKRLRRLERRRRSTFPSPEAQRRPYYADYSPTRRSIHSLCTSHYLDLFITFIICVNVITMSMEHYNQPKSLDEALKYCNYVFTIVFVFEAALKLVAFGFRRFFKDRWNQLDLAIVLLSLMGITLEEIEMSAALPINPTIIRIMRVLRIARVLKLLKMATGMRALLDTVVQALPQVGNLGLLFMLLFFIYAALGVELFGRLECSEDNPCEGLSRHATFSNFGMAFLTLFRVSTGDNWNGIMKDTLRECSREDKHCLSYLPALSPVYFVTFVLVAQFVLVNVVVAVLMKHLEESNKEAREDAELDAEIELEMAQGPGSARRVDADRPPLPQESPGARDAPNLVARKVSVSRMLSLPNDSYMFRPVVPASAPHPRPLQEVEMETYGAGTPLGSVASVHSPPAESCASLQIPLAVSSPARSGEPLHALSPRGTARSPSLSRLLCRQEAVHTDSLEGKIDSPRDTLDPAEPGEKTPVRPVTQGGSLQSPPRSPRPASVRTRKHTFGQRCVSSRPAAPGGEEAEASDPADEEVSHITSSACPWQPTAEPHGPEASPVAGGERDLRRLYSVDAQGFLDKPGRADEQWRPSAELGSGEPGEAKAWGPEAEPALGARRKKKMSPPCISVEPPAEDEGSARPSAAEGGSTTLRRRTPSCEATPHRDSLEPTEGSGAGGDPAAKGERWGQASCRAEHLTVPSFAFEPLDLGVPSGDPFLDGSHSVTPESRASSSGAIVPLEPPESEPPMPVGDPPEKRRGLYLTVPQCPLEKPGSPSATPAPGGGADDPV
Details: Xenopus oöcytes; Ba^2+ currents (15 mM Ba^2+)
attributeMeasured: IC50 (µM)
Give the number; µM is assumed, so skip it.

Please fill in: IC50 reported for "[Ni+2]" = 6.3

----------
Biological target: human α1H containing calcium channels expressed in HEK293 cells (Homo sapiens, UniProt O95180)
Construct: expressed in transfected cells; host or cells: HEK293 (transient, calcium phosphate; pCMVCD4 co-transfected as marker)
Assay: Whole-cell patch clamp of HEK293 cells transiently expressing the α1H subunit
Format: cell-based
Details: HEK293 cells; charge carrier 15 mM Ba^2+; sigmoidal curve fitting
attributeMeasured: IC50 (µM)
Give the number; µM is assumed, so skip it.

Please fill in: IC50 reported for N=C(N)NC(=O)c1nc(Cl)c(N)nc1N [Amiloride, amiloride] = 167
